Molecular target: T1, nuclear SREBP-1c (nSREBP-1c) (rat, UniProt P56720-1 1-456)
T1 sequence: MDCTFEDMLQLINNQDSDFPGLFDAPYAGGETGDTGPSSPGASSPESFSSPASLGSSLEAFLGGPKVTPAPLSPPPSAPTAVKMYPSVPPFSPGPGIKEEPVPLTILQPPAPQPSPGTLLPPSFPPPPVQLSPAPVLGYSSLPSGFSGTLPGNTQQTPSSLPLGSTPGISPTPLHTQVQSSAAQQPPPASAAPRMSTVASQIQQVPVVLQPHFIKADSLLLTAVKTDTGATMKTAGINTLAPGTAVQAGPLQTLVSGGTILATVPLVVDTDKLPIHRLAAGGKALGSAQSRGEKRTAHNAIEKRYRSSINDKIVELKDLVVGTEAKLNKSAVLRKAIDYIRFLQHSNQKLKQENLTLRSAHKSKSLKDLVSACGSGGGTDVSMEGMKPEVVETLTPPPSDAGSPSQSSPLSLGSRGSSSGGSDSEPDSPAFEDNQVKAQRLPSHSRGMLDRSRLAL
Experiment: EMSA; EMSA with DIG-labeled annealed oligonucleotides (Roche DIG Gel Shift Kit, 2nd Generation) and TNT T7 in vitro-translated proteins; buffer, salt, pH and temperature not stated (ref 19)
Details: protein: ivt; chain copies: 2; label: DIG end-label; 5' overhangs 4 nt (AGCT / TCGA)

>  <BINDER>
rTPO VI mut4 (dsDNA) DNA 1: AGCTCAGGCCTCTCAGATAGTGGGTCCTCCCAAGT DNA 2: TCGAACTTGGGAGGACCCACTATCTGAGAGGCCTG

>  <binding result>
no binding

$$$$
>  <BINDER>
rTPO VI (dsDNA) DNA 1: AGCTCAGGCCTCTCCTCAGGTGGGTCCTCCCAAGT DNA 2: TCGAACTTGGGAGGACCCACCTGAGGAGAGGCCTG

>  <binding result>
binds

$$$$
>  <BINDER>
rTPO IV (dsDNA) DNA 1: AGCTATACTGTGGGATGTACCATA DNA 2: TCGATATGGTACATCCCACAGTAT

>  <binding result>
binds

$$$$
>  <BINDER>
rTPO VI mut5 (dsDNA) DNA 1: AGCTCAGGCGGAAACTCAGGTGGGTCCTCCCAAGT DNA 2: TCGAACTTGGGAGGACCCACCTGAGTTTCCGCCTG

>  <binding result>
binds

$$$$
>  <BINDER>
rTPO II (dsDNA) DNA 1: AGCTTTGCAGTGGGGAAGAGATAA DNA 2: TCGATTATCTCTTCCCCACTGCAA

>  <binding result>
no binding

$$$$
